Collected GI50 values appear next to each entry.
- Test system: SW-620 colon
- Assay: NCI tumour cell line growth inhibition, 48 h

Past entries and their recorded results:
Compound	Measured Result
COc1cc2c(cc1OCCCN1CCN(CCCOc3cc4c(cc3OC)C(=O)N3CC(F)(F)C[C@H]3C=N4)CC1)N=C[C@@H]1CC(F)(F)CN1C2=O	2.61 µM
NC(=S)N/N=C/c1ncccc1O	3.3 µM
Cc1nc2c(Br)cc(Br)cc2c(=O)n1-c1nnc(-c2cccc(Cl)c2Cl)c(N)n1	33.8 µM

Which GI50 reading was recorded for the compound N#CC(I)CS(=O)(=O)c1ccccc1 (stereo not given) ?
1.78 µM

Would you mind telling me what GI50 value was observed for "O=c1[nH]c(O)c(C=Nc2ccc(-c3nc4ccccc4o3)cc2)c(=O)[nH]1" ?
40.6 µM
